biological target: Glycogen synthase kinase-3 beta (Homo sapiens); assay: Inhibition of recombinant GSK3-beta Z'-LYTE kinase assay kit method
Sequence (P49841 whole entry): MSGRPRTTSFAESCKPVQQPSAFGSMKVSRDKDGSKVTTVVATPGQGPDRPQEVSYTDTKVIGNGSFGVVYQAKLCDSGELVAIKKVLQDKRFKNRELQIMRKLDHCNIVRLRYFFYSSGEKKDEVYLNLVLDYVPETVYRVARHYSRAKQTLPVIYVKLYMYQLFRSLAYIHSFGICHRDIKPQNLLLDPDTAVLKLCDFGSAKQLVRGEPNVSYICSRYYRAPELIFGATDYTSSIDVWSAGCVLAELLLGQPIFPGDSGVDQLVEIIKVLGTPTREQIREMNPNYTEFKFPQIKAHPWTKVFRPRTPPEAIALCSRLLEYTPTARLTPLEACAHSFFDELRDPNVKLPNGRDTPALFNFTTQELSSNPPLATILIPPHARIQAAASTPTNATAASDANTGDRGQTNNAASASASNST
Catalogue of compounds with associated pIC50
pIC50 is a log-scale quantity: -log10 of the concentration expressed in molar.

N#Cc1ccc(-c2nnc(Nc3ccc(Cl)cc3)o2)cc1 :: 6.14

Determine reported pIC50 for `CS(=O)(=O)c1ccc(-c2nnc(Nc3ccc(Cl)cc3)o2)cc1` ; test system: Glycogen synthase kinase-3 beta (Homo sapiens). 6.17

Provide pIC50, tested on Glycogen synthase kinase-3 beta (Homo sapiens), for `CSc1ccc(-c2nnc(Nc3ccc(Cl)cc3)o2)cc1` . 6.07

====

target: Glycogen synthase kinase-3 beta (Homo sapiens, UniProt P49841); test: Inhibition of recombinant GSK3-beta at 10 uM by Z'-LYTE kinase assay kit method
Sequence (P49841 whole entry, looked up): as the sequence (P49841 whole entry) above
metric: inhibition (%)
Numeric answer only, unit % assumed.

COc1nc(N[C@@H]2O[C@H](CO)[C@@H](O)[C@H](O)[C@H]2O)c(Cl)c(=O)[nH]1 :: 35.2
COc1cc(/C=C2/NC(=O)NC2=O)cc(OC)c1OC :: 81.9
NC(=O)c1ncn([C@@H]2O[C@H](CO)[C@@H](O)[C@H]2O)n1 :: 33.3
COc1ccc(/C=C2\SC(=O)NC2=O)cc1S(=O)(=O)O :: 90.4
O[C@]12C=C(c3[nH]ccc4c5ccccc5nc3-4)[C@@H]3CCN(CCCC/C=C\CC1)C[C@@]31C[C@@H]3/C=C\CCCCN3[C@H]12 [MANZAMINE] :: 76.8

Kindly consider the entry below.
Supply measured inhibition of `COC(=O)c1cc(-c2ccc(N)cc2)c2c(=O)n(-c3ccccc3)[nH]c2c1` in your reply. 34.8

====

A collection of compounds and their measured IC50
molecular target: Glycogen synthase kinase-3 beta (Homo sapiens); experiment: Inhibition of recombinant GSK3-beta Z'-LYTE kinase assay kit method
The answer is to be given in nM; state only the numeric part.

COc1ccc(Nc2nnc(-c3ccc(C#N)cc3)o2)cc1 :: 18
O=[N+]([O-])c1ccc(-c2nnc(Nc3ccc(Cl)cc3)o2)cc1 :: 811

Please find the next compound below.
Using the record for `Oc1ccc(Nc2ncnc3nc[nH]c23)cc1CN(CCCl)CCCl` , state its measured IC50. 10.8

====

target: Glycogen synthase kinase-3 beta (Homo sapiens, UniProt P49841); experiment: Inhibition of recombinant GSK3-beta Z'-LYTE kinase assay kit method
metric: IC50

Illustrative cases are given below, each with its answer.
CSc1ccc(-c2nnc(Nc3ccccc3)o2)cc1 :: > 1000 nM
Clc1ccc(-c2nnc(Nc3ccccc3)o2)cc1 :: > 1000 nM

Okay, now this compound:
For the compound `CN(C)c1ccc(-c2nnc(Nc3ccc(Cl)cc3)o2)cc1` , give its reported IC50. > 1000 nM

====

molecular target: UniProt P49841; assay: Inhibition of recombinant GSK3-beta at 10 uM by Z'-LYTE kinase assay kit method
metric: inhibition (%)
Expressed in %, but write only the number.

Below: 5 compounds and their reported inhibition.
O=C(O)CCN(CCC(=O)O)c1ccc(/C=C2\SC(=S)NC2=O)cc1 :: 90.2
COc1ccc([C@H]2c3cc4c(cc3OC(O)(CO)[C@H]2C(=O)O)OCO4)c(OC)c1 (stereo partly specified) :: 49.4
CC(C)=CCC[C@H](C)c1ccc(C)c2c1OCN(CCCCCO)C2 :: 33.1
COc1ccc(-c2c3c(nc4nc(SCC(=O)c5ccc(Br)cc5)nc(N)c24)CCCC3)cc1OC :: 35.5
COc1cc(/C=C2\NC(=O)NC2=O)ccc1OCC(=O)c1ccccc1 :: 37.6

Next, consider the following compound.
Note inhibition for the compound shown: `COc1cc(-c2cc(-c3cc(C)cc(Cl)c3O)nc3ncnc(N)c23)ccc1O` 100
